experiment: qHTS Assay for Lipid Storage Modulators in Drosophila S3 Cells; conditions: BODIPY lipid droplet fluorescence, 18-24 h, cells fed with added oleic acid; series mostly up to 46.1 µM
Out of some 320,000 compounds screened, about 2,100 (0.66%) were called active. Another 53% or so got no clear call; they are omitted. Calls come from the whole dose curve; as a rule, active = well fitted inhibition curve with a large enough effect in the signal ratio, with a control signal flat (not every such curve was filed as active); inconclusive = small, poorly fitted or top-dose-only effect, or effect the other way, or a change in a side signal; inactive = flat fitted curve, though single readings scatter; the % refers to the signal ratio. The entries come from a sample that favours actives as a whole.
Give one outcome, nothing more. List: class 1 (active), class 0 (inactive)

- chem_smiles: "COc1cccc(CC(=O)N(CCC2=CCCCC2)c2c(N)n(Cc3ccccc3)c(=O)[nH]c2=O)c1"
  class_label: "class 0"
- chem_smiles: "Fc1ccc(-c2csc(-c3cccnc3)n2)cc1F"
  class_label: "class 0"
- chem_smiles: "O=S(=O)(c1ccccc1)c1nnn2c1nc(NC1CCN(Cc3ccccc3)CC1)c1cc(Cl)ccc12"
  class_label: "class 1"
- chem_smiles: "O=S(=O)(c1ccccc1)c1nnn2c1nc(NC1CCN(Cc3ccccc3)CC1)c1ccccc12"
  class_label: "class 0"

Please state the recorded outcome for this compound: O=S(=O)(NC1CCN(Cc2ccccc2)CC1)c1ccc(Cl)cc1
class 0

====

experiment: qHTS Assay for Lipid Storage Modulators in Drosophila S3 Cells; settings: BODIPY lipid droplet fluorescence, 18-24 h, cells fed with added oleic acid; series mostly up to 46.1 µM
In all, about 320,000 compounds went through this assay and about 2,100 (0.66%) were called active. Roughly 53% stayed inconclusive and do not appear here. Calls follow the shape of the dose curve; as a rule, active = well fitted inhibition curve with a large enough effect in the signal ratio, with a control signal flat (not every such curve was filed as active); inconclusive = small, poorly fitted or top-dose-only effect, or effect the other way, or a change in a side signal; inactive = flat fitted curve, though single readings scatter; the % refers to the signal ratio. This is one part of a sample in which actives are shown more often than they occur.
Can you answer with just one of these options? active, inactive

Before answering, review these 5 worked examples.
- molecule: "CS(=O)(=O)c1cccc(C(=O)Nc2ccc(-c3nc4ccccc4[nH]3)cc2)c1"
  class_label: "inactive"
- molecule: "COc1cccc(C(=O)Nc2nc3ccccc3[nH]2)c1"
  class_label: "inactive"
- molecule: "COC(=O)CON1C(=O)c2ccccc2C1=O"
  class_label: "active"
- molecule: "Cc1ccccc1C(=O)NCCn1cc(SCC(=O)NCC2CCCO2)c2ccccc21 (stereo unspecified)"
  class_label: "inactive"
- molecule: "CS(=O)(=O)c1cccc(C(=O)Nc2cccc(-c3nc4ccccc4[nH]3)c2)c1"
  class_label: "active"

For CCn1cc(SCC(=O)NCC2CCCO2)c2ccccc21 (stereo unspecified) , what call appears in the results of this test?
inactive

Outcome? CS(=O)(=O)c1ccc(C(=O)Nc2cccc(-c3nc4ccccc4[nH]3)c2)cc1
inactive

# fetch the recorded call for COC(=O)CCC(=O)NN1C(=O)c2ccccc2C1=O here
inactive

What call does the record list for COc1cccc(NC(=O)CC2C(=O)NC3CCCCC3N2C(=O)c2ccc(F)cc2)c1 (stereo unspecified) ?
inactive

Dear all, I need the recorded test outcome for COC(=O)c1ccc(CON2C(=O)c3ccccc3C2=O)cc1 , thank you.
inactive

Please let me know the test result on file for COc1ccccc1C(=O)NCCn1cc(SCC(=O)NCC2CCCO2)c2ccccc21 (stereo unspecified) .
active

====

Some compounds, each annotated with its measured cell number change.
assay: qHTS Assay for Lipid Storage Modulators in Drosophila S3 Cells; conditions: BODIPY lipid droplet fluorescence, 18-24 h, cells fed with added oleic acid; measured here: cell count max response;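 for cell number change: cells counted by Cell Tracker Red CMTPX staining in the red channel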
In all, about 320,000 compounds went through this assay and about 2,100 (0.66%) were called active. Not shown: some 53% with an inconclusive outcome. This is one part of a sample in which actives are shown more often than they occur.
I only need the number, in %, no unit after it.

Which measured cell number change value corresponds to COc1ccc(NC(=O)c2oc3ccccc3c2CSC)cn1 ?
1.61

Just for reference, PubChem BioAssay AID2685 is where these values come from.
